Tested on: Non-Tourette's tics, obsessive-compulsive rituals, and attention deficit hyperactive disorder (ADHD)
run-conditions: before sibutramine

{"molecule": "CCCN(CCC)CCc1cccc2c1CC(=O)N2", "response to other medications": "unsuccessful"}
{"molecule": "COc1cc2c(cc1OC)C(=O)C(CC1CCN(Cc3ccccc3)CC1)C2 (stereo not shown)", "response to other medications": "unsuccessful"}
{"molecule": "NC(=O)N1c2ccccc2C=Cc2ccccc21 [carbamazepine]", "response to other medications": "unsuccessful"}
